Measured Cell kill IC50, MDA-MB468 of individual entries
- subject-of-test: T1, human nectin-4 protein expressed on the surface of cells (human, UniProt Q96NY8 32-510)
- T1 sequence: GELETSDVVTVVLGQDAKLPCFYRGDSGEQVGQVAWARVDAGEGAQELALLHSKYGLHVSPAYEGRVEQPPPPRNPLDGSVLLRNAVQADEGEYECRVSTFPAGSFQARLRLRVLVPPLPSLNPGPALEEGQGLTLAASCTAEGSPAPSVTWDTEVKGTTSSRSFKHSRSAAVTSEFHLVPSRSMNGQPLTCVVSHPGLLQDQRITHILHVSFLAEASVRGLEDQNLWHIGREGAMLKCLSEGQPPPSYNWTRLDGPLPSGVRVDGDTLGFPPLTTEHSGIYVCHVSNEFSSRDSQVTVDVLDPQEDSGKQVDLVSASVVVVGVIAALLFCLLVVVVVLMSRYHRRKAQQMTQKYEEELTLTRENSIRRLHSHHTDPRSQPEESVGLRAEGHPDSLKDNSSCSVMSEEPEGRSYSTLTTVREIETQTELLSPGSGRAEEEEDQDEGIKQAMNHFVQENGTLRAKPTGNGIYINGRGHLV
- assay-comment: cell-based or functional assay
# value in nM; strip the unit string

Illustrative cases are given below, each with its answer.
{"columns": ["binder", "scale-unit", "Cell kill IC50, MDA-MB468"],
 "data": [
  ["Nectin-4 5D9 VH5/VL3 (antibody, V domains shown, Humanized; also called 5D9 VH variant 5 / 5D9 VL variant 3) VH: QVQLQESGPGLVKPSETLSLTCTVSGGSLTNYGVHWVRQPPGKGLEWIGVIWSGGSTNYNPSLKSRVTISRDTSKNQVSLKLSSVTAADTAVYYCARSGKWYYFDYWGQGTLVTVSS VL: DIQMTQSPSSLSASVGDRVTITCRASQSIYSNLAWYQQKPGKAPKLLVYAATNLASGVPSRFSGSGSGTDFTLTISSLQPEDFATYYCQHFWGTPTFGGGTKVEIK", "nM", 16.6],
  ["Nectin-4 5D9 VH1/VL2 (antibody, V domains shown, Humanized; also called 5D9 VH variant 1 / 5D9 VL variant 2) VH: QVQLKESGPGLVQPSETLSLTCTVSGFSITNYGVHWIRQSPGKGLEWLGVIWSGGSTDYNAAFVSRVTISRDNSKSQVFFKLNSVQADDTAVYYCARSGKWYYFDYWGQGTTVTVSS VL: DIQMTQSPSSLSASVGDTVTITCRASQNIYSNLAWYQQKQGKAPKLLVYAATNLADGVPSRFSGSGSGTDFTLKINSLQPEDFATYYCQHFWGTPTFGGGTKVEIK", "nM", 10.3]
]}

Now for the binder whose Cell kill IC50, MDA-MB468 we want.
query: Can you look up the measured Cell kill IC50, MDA-MB468 of Nectin-4 5D9H/5D9L (recombinant chimeric antibody) (antibody, V domains shown, also called Nectin-4 5D9 chimeric mAb) VH: QVQLKQSGPGLVQPSQSLSITCTVSGFSLTNYGVHWVRQSPGKGLEWLGVIWSGGSTDYNAAFVSRLSISRDNSKSQVFFKMNSLQADDTAIYYCARSGKWYYFDYWGQGTTLTVSS VL: DIQMTQSPASLSVSVGETVTITCRASENIYSNLAWYQQKQGKSPQLLVYAATNLADGVPSRFSGSGSGTQYSLKINSLQSEDFGSYYCQHFWGTPTFGGGTKLEIK for me?
result: 1.31

All values here come from patent US20250101098A1.
